Values were extracted from patent US20210300940A1.

// reported pIC50 for each item listed
- SUBJECT OF TEST: TLR8 (Homo sapiens, UniProt Q9NR97)
- Sequence (Q9NR97 27-1041): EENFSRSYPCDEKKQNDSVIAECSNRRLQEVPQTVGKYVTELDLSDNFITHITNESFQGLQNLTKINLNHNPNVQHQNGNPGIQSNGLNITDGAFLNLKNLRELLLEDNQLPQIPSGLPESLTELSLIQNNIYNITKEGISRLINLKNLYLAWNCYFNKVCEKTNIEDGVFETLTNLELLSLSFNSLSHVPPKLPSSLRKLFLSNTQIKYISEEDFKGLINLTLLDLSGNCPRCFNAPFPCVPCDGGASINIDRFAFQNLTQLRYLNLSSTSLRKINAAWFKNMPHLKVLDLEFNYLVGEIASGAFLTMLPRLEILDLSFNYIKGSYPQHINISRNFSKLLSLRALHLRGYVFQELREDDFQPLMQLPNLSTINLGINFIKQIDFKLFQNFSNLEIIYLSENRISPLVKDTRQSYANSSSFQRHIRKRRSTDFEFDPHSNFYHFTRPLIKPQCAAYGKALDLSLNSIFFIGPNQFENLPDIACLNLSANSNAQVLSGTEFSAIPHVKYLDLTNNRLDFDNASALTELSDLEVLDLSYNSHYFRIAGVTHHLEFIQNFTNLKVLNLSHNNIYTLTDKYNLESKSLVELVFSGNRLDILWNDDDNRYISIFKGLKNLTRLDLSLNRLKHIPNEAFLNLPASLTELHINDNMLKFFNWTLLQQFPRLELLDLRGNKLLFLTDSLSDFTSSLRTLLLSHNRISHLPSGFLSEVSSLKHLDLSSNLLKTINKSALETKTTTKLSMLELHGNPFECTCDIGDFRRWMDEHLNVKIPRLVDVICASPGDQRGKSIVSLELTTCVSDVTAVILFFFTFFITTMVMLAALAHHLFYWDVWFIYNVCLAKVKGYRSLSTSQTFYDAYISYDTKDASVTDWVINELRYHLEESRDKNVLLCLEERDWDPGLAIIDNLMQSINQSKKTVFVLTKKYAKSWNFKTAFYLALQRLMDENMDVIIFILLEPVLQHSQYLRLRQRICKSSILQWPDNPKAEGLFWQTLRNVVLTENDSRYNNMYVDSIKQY
- PROCEDURE DETAILS: HEK/293 TLR8 Cell Assay
- CONDITION LABEL: HEK cells, R848 agonist 30 uM final concentration, Steady-Glo readout; read-out: TLR8 potency
pIC50: −log10 of the molar value. Counter-ions that a name gives are not always drawn.

Please review the following examples before continuing.
Find the measured pIC50 of "C[C@@H](O)[C@H](N)C(=O)N1CCC(CC(=O)N[C@@H]2C[C@H](C(F)(F)F)CN(c3ccc(C#N)c4ncccc34)C2)CC1" and report it.
6.82 to 7.12

Find the measured pIC50 of C[C@H]1C[C@@H](N)CN(c2cnc(C#N)c3nccnc23)C1 [Example 187, hydrochloride] and report it.
> 7.12

Continuing:
Find the measured pIC50 of "Cc1ccc(N2C[C@@H](C)C[C@@H](NC(=O)CN3CCN(C)CC3)C2)c2cccnc12" and report it.
> 7.12

Find the measured pIC50 of "C[C@@H]1CN(c2ccc(C#N)c3nccnc23)C[C@H](CSC2CN(CC(C)(C)O)C2)O1" and report it.
> 7.12
